# testConditions: rabbit, in vivo, 20 mg/kg
metricName: AUC (µg·h/mL)

compound | measurement
CO[C@H]1/C=C/O[C@@]2(C)Oc3c(C)c(O)c4c(O)c(c(/C=N/N5CCN(C/C=C/c6ccccc6)CC5)c(O)c4c3C2=O)NC(=O)/C(C)=C\C=C\[C@H](C)[C@H](O)[C@@H](C)[C@@H](O)[C@@H](C)[C@H](OC(C)=O)[C@@H]1C [T-9, reference compound] | 233

----------
# testConditions: mouse, in vivo, 20 mg/kg
metricName: AUC (µg·h/mL)

molecule | measurement
CO[C@H]1/C=C/O[C@@]2(C)Oc3c(C)c(O)c4c(O)c(c(/C=N/N5CCN(C/C=C/c6ccccc6)CC5)c(O)c4c3C2=O)NC(=O)/C(C)=C\C=C\[C@H](C)[C@H](O)[C@@H](C)[C@@H](O)[C@@H](C)[C@H](OC(C)=O)[C@@H]1C [T-9, reference compound] | 735
